experiment: Pharmacokinetics on single dose in Beagle dogs (iv and po); format: in vivo, male Beagle dogs; conditions: male, dog, plasma, po 10 mg/kg
Quantity Name: AUC(0-t) (ng·h/mL)
Field format: number, assumed ng·h/mL, no unit text.

Would you mind telling me what AUC(0-t) value was observed for C=CCn1c(=O)c2cnc(Nc3ccc(N4CCN(C)CC4)cc3)nc2n1-c1cccc(C(C)(C)O)n1 [AZD1775, reference compound] ? 1620

====

experiment: Metabolic stability in liver microsomes, dog; format: in vitro ADME
Rule: T1/2 liver microsomes Dog of 40 min or more gives T; anything lower gives F.

Quick check: does C=CCn1c(=O)c2cnc(Nc3ccc(N4CCC5(CCN(C)CC5)CC4)cc3)nc2n1-c1ccc2c(n1)[C@](C)(O)C1(CC2)CC1 (racemic) [Compound 44] have T1/2 liver microsomes Dog greater than or equal to 40 min? T

Quick check: does C=CCn1c(=O)c2cnc(Nc3ccc(N4CCN(C)CC4)cc3)nc2n1-c1ccc2c(n1)[C@H](O)C1(CC2)CC1 (single isomer, unassigned) [Compound 4b] have T1/2 liver microsomes Dog greater than or equal to 40 min? T

Quick check: does [2H][C@]1(O)c2nc(-n3c4nc(Nc5ccc(N6CCC7(CCN(C)CC7)CC6)cc5)ncc4c(=O)n3CC=C)ccc2CCC12CC2 [Compound 37b] have T1/2 liver microsomes Dog greater than or equal to 40 min? T

Quick check: does C=CCn1c(=O)c2cnc(Nc3ccc(N4CC5CC(C4)N5C)cc3)nc2n1-c1ccc2c(n1)[C@@](C)(O)C1(CC2)CC1 [Compound 7a] have T1/2 liver microsomes Dog greater than or equal to 40 min? T

Quick check: does C=CCn1c(=O)c2cnc(Nc3ccc(N4CCC(N(C)C)CC4)c(C)c3)nc2n1-c1ccc2c(n1)[C@@](C)(O)C1(CC2)CC1 (single isomer, unassigned) [Compound 52a] have T1/2 liver microsomes Dog greater than or equal to 40 min? F

Quick check: does C=CCn1c(=O)c2cnc(Nc3ccc(N4C[C@H]5CN(C)C[C@H]5C4)cc3)nc2n1-c1ccc2c(n1)C(O)(CC)C1(CC1)C2 (stereo partly drawn) [Compound 28] have T1/2 liver microsomes Dog greater than or equal to 40 min? F

====

experiment: Pharmacokinetics on single dose in rats (iv and po); format: in vivo, male SD rats; conditions: male, rat, plasma; SD rats, po 10 mg/kg
Quantity Name: half-life (h)
Field format: number, assumed h, no unit text.

Would you mind telling me what half-life value was observed for C=CCn1c(=O)c2cnc(Nc3ccc(N4CCN(C)CC4)cc3)nc2n1-c1cccc(C(C)(C)O)n1 [AZD1775, reference compound] ? 2.68

====

system: Caco-2 cells; test: Membrane permeability in Caco-2 model; assay type: in vitro ADME; conditions: Caco2, 10 μM, 90 min
Quantity Name: Papp B to A

Lookup: Papp B to A / Caco-2 cells / C=CCn1c(=O)c2cnc(Nc3ccc(N4CCN(C)CC4)cc3)nc2n1-c1ccc2c(n1)C(C)(O)C1(CC1)C2 (single isomer, unassigned) 13.07 10^−6 cm/s

Lookup: Papp B to A / Caco-2 cells / C=CCn1c(=O)c2cnc(Nc3ccc(N4CCC5(CCN(C)CC5)CC4)cc3)nc2n1-c1ccc2c(n1)C(C)(O)C1(CC1)C2 (stereo not drawn) 8.85 10^−6 cm/s

Lookup: Papp B to A / Caco-2 cells / C=CCn1c(=O)c2cnc(Nc3ccc(N4CCC(N(C)C)CC4)cc3)nc2n1-c1ccc2c(n1)[C@@](C)(O)C1(CC2)CC1 [Compound 65a] 9.17 10^−6 cm/s

Reference source: patent US20250304587A1
